target: PPAR alpha (Homo sapiens, UniProt Q07869); test: Transient transfection (transactivation) assay in CV-1 cells, GAL4-PPAR chimera, luciferase reporter
METRIC_NAME: EC50

>>> recorded_value("Cc1ccc(CC(=O)O)cc1S(=O)(=O)N1CCN(CC2CCCCC2)CC1 [Example 161]")
"> 100 µM"

Provide only the value of recorded EC50 for O=C(O)Cc1cccc(S(=O)(=O)N2CCN(c3ccc(Cl)c(Cl)c3)CC2)c1 [Example 115]
5 to 100 µM

Provide only the value of recorded EC50 for Cc1ccc(S(=O)(=O)N2CCN(c3nc4ccccc4o3)CC2)cc1CC(=O)O [Example 17]
5 to 100 µM

Provide only the value of recorded EC50 for COCCNCc1cc(CC(=O)O)cc(S(=O)(=O)N2CCN(c3ccc(C(F)(F)F)cc3)CC2)c1 [Example 89]
> 100 µM

Provide only the value of recorded EC50 for Cc1ccc(S(=O)(=O)N2C[C@@H](C)N(c3ccc(C(F)(F)F)cn3)[C@@H](C)C2)cc1CC(=O)O [Example 72]
> 100 µM

Provide only the value of recorded EC50 for O=C(O)COCc1cccc(S(=O)(=O)N2CCN(c3ccc(C(F)(F)F)cc3)CC2)c1 [Example 211]
> 100 µM

Provide only the value of recorded EC50 for Cc1ccc(S(=O)(=O)N2CCN(c3ccc(Br)cn3)CC2)cc1CC(=O)O [Example 61]
> 100 µM

Provide only the value of recorded EC50 for C[C@@H]1CN(c2ccc(C(F)(F)F)cn2)C[C@H](C)N1S(=O)(=O)c1ccc(O)c(CCC(=O)O)c1 [Example 193]
> 100 µM

* * *

molecular target: PPAR alpha (Homo sapiens); experiment: Transient transfection (transactivation) assay in CV-1 cells, GAL4-PPAR chimera, luciferase reporter
pEC50: −log10 of the molar value.
Each entry below carries its recorded pEC50.

>>> recorded_value("Cc1ccc(CC(=O)O)cc1S(=O)(=O)N1CCN(CCc2ccccc2)CC1")
"< 4.00"
>>> recorded_value("O=C(O)Cc1cccc(S(=O)(=O)N2CCN(c3ccccc3Cl)CC2)c1")
"< 4.00"

Provide only the value of recorded pEC50 for `COc1ccccc1N1CCN(S(=O)(=O)c2cc(CC(=O)O)ccc2C)CC1`
< 4.00

Provide only the value of recorded pEC50 for `O=C(O)Cc1cccc(S(=O)(=O)N2CCN(c3ccc(Cl)cc3)CC2)c1`
< 4.00

Provide only the value of recorded pEC50 for `Cc1ccc(S(=O)(=O)N2CCN(c3ccc(Cl)c(Cl)c3)[C@@H](C)C2)cc1CC(=O)O`
4.00 to 5.30

Provide only the value of recorded pEC50 for `CC(C)(C)c1ccc(N2CCN(S(=O)(=O)c3cccc(CC(=O)O)c3)CC2)cc1`
4.00 to 5.30

Provide only the value of recorded pEC50 for `O=C(O)CCc1cccc(S(=O)(=O)N2CCN(c3ccc(Cl)c(Cl)c3)CC2)c1`
< 4.00

* * *

molecular target: PPAR gamma (Homo sapiens, UniProt P37231); test: Transient transfection (transactivation) assay in CV-1 cells, GAL4-PPAR chimera, luciferase reporter
Sequence (P37231 238-503 limits assumed): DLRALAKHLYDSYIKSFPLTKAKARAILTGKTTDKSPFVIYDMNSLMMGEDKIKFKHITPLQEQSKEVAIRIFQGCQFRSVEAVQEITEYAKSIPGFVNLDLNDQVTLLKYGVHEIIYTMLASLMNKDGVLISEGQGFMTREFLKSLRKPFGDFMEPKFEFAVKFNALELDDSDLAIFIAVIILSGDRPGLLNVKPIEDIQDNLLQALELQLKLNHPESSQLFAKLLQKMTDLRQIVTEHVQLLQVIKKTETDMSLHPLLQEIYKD
pEC50: −log10 of the molar value.
Each entry below carries its recorded pEC50.

These recorded examples may help you get a feel for the data.
>>> recorded_value("C[C@@H]1[C@H](C)N(c2ccc(C(F)(F)F)cn2)CCN1S(=O)(=O)c1cccc(CC(=O)O)c1 (racemic) [Example 105]")
"> 5.30"
>>> recorded_value("COc1ccc(N2CCN(S(=O)(=O)c3cc(CC(=O)O)ccc3C)CC2)cc1 [Example 155]")
"< 4.00"
>>> recorded_value("Cc1ccc(S(=O)(=O)N2CCN(c3ncc(F)cn3)CC2)cc1CC(=O)O [Example 63]")
"4.00 to 5.30"
>>> recorded_value("Cc1ccc(S(=O)(=O)N2CCN(c3cccc(C(F)(F)F)n3)CC2)cc1CC(=O)O [Example 36]")
"> 5.30"
>>> recorded_value("Cc1ccc(S(=O)(=O)N2CCCN(c3ccncc3)CC2)cc1CC(=O)O [Example 13]")
"< 4.00"
>>> recorded_value("Cc1ccc(S(=O)(=O)N2[C@H](C)CN(c3nc4ccccc4o3)C[C@@H]2C)cc1CC(=O)O [Example 24]")
"< 4.00"
>>> recorded_value("Cc1ccc(S(=O)(=O)N2[C@H](C)CN(c3ccc(C(F)(F)F)cn3)C[C@@H]2C)cc1CC(=O)O [Example 20]")
"< 4.00"
>>> recorded_value("O=C(O)Cc1cccc(S(=O)(=O)N2CCN(CC3CCCCC3)CC2)c1 [Example 132]")
"4.00 to 5.30"

Consider the molecule Cc1ccc(S(=O)(=O)N2CCN(c3ccc(Cl)c(Cl)c3)C[C@@H]2C)cc1CC(=O)O [Example 101] tested on PPAR gamma (Homo sapiens, UniProt P37231); state its pEC50.
4.00 to 5.30

* * *

biological target: PPAR delta (Homo sapiens, UniProt Q03181); assay: Transient transfection (transactivation) assay in CV-1 cells, GAL4-PPAR chimera, luciferase reporter
Sequence (Q03181 211-439 limits assumed): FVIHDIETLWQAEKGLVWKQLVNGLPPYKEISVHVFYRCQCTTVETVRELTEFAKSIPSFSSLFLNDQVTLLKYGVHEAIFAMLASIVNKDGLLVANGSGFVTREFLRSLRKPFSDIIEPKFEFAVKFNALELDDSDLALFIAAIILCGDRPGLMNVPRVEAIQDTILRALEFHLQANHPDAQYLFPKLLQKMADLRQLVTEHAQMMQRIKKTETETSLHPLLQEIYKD
pEC50: −log10 of the molar value.
Each entry below carries its recorded pEC50.

>>> recorded_value("Cc1ccc(S(=O)(=O)N2CCN(c3ccc(OC(F)(F)F)cc3)CC2)cc1CC(=O)O")
"> 5.30"
>>> recorded_value("O=C(O)Cc1cccc(S(=O)(=O)N2CCN(C(=O)c3ccco3)CC2)c1")
"< 4.00"
>>> recorded_value("Cc1ccc(S(=O)(=O)N2CCN(c3ccc(Cl)cc3)CC2)cc1CC(=O)O")
"> 5.30"

Consider the compound `O=C(O)Cc1cc(C(F)(F)F)cc(S(=O)(=O)N2CCN(c3ccc(C(F)(F)F)cc3)CC2)c1` tested on PPAR delta (Homo sapiens, UniProt Q03181); state its pEC50.
> 5.30

Consider the compound `O=C(O)Cc1cccc(S(=O)(=O)N2CCN(CCc3ccccc3)CC2)c1` tested on PPAR delta (Homo sapiens, UniProt Q03181); state its pEC50.
< 4.00

Consider the compound `Cc1ccc(S(=O)(=O)N2CCN(c3ccc(C(F)(F)F)cn3)CC2)cc1CC(=O)O` tested on PPAR delta (Homo sapiens, UniProt Q03181); state its pEC50.
> 5.30

Consider the compound `Cc1ccc(S(=O)(=O)N2CCN(c3nc(Cl)ncc3F)CC2)cc1CC(=O)O` tested on PPAR delta (Homo sapiens, UniProt Q03181); state its pEC50.
< 4.00

Consider the compound `Cc1ccc(S(=O)(=O)N2CCN(c3nc4ccccc4o3)CC2)cc1CC(=O)O` tested on PPAR delta (Homo sapiens, UniProt Q03181); state its pEC50.
> 5.30

Consider the compound `CC(C)(Oc1cccc(S(=O)(=O)N2CCN(c3ccc(Cl)c(Cl)c3)CC2)c1)C(=O)O` tested on PPAR delta (Homo sapiens, UniProt Q03181); state its pEC50.
< 4.00

* * *

Each entry below carries its recorded EC50.
Target: PPAR alpha (Homo sapiens, UniProt Q07869)
Sequence (Q07869 239-466 limits assumed): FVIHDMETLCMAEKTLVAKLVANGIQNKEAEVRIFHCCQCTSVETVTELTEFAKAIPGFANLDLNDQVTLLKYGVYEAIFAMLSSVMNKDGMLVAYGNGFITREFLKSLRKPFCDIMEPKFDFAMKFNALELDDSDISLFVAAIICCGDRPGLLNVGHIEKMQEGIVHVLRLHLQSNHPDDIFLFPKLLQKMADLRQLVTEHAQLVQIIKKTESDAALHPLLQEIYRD
Experiment: Transient transfection (transactivation) assay in CV-1 cells, GAL4-PPAR chimera, luciferase reporter

These recorded examples may help you get a feel for the data.
>>> recorded_value("Cc1cccc(N2CCN(S(=O)(=O)c3cccc(CC(=O)O)c3)CC2C)c1 (stereo not shown)")
"> 100 µM"
>>> recorded_value("C[C@@H]1CN(c2ccc(C(F)(F)F)c(Cl)c2)C[C@H](C)N1S(=O)(=O)c1cccc(CC(=O)O)c1")
"5 to 100 µM"
>>> recorded_value("Cc1ccc(N2CCN(S(=O)(=O)c3cccc(CC(=O)O)c3)CC2)c(C)c1")
"> 100 µM"
>>> recorded_value("Cc1ccc(S(=O)(=O)N2CCN(c3ncc(Br)s3)CC2)cc1CC(=O)O")
"5 to 100 µM"
>>> recorded_value("Cc1ccc(S(=O)(=O)N2CCN(c3ccc(Cl)c(Cl)c3)CC2)cc1CC(=O)O")
"5 to 100 µM"

Provide only the value of recorded EC50 for `COC(=O)[C@@H]1CN(S(=O)(=O)c2ccc(C)c(CC(=O)O)c2)CCN1c1ccc(C(F)(F)F)cn1`
> 100 µM

Provide only the value of recorded EC50 for `Cc1ccc(S(=O)(=O)N2CCN(CCc3ccccc3)CC2)cc1CC(=O)O`
> 100 µM

Provide only the value of recorded EC50 for `Cc1ccc(S(=O)(=O)N2CCN(c3cnc(Cl)cn3)CC2)cc1CC(=O)O`
> 100 µM

Provide only the value of recorded EC50 for `COc1ccc(N2CCN(S(=O)(=O)c3cc(CC(=O)O)ccc3C)CC2)cc1OC`
> 100 µM

Provide only the value of recorded EC50 for `Cc1cc(CC(=O)O)cc(S(=O)(=O)N2CCN(c3ncc(C(F)(F)F)cc3Cl)CC2)c1`
5 to 100 µM

Provide only the value of recorded EC50 for `Cc1ccc(S(=O)(=O)N2CCN(c3ccc(Cl)c(Cl)c3)C[C@@H]2C)cc1CC(=O)O`
5 to 100 µM
